biological target: CBL-B (Homo sapiens, UniProt Q13191); construct: GST; assay: CBL-B TR-FRET IC50 screening (E1/E2 ubiquitination, Biotin-Ubiquitin, Anti GST-Tb donor / Streptavidin-d2 acceptor); assay type: biochemical; details: second part of Table 2 (head 'Patent Cmpd No / Updated Activity'); same CBL-B TR-FRET IC50 bins A-F; read-out: Updated Activity
Sequence (Q13191 whole entry): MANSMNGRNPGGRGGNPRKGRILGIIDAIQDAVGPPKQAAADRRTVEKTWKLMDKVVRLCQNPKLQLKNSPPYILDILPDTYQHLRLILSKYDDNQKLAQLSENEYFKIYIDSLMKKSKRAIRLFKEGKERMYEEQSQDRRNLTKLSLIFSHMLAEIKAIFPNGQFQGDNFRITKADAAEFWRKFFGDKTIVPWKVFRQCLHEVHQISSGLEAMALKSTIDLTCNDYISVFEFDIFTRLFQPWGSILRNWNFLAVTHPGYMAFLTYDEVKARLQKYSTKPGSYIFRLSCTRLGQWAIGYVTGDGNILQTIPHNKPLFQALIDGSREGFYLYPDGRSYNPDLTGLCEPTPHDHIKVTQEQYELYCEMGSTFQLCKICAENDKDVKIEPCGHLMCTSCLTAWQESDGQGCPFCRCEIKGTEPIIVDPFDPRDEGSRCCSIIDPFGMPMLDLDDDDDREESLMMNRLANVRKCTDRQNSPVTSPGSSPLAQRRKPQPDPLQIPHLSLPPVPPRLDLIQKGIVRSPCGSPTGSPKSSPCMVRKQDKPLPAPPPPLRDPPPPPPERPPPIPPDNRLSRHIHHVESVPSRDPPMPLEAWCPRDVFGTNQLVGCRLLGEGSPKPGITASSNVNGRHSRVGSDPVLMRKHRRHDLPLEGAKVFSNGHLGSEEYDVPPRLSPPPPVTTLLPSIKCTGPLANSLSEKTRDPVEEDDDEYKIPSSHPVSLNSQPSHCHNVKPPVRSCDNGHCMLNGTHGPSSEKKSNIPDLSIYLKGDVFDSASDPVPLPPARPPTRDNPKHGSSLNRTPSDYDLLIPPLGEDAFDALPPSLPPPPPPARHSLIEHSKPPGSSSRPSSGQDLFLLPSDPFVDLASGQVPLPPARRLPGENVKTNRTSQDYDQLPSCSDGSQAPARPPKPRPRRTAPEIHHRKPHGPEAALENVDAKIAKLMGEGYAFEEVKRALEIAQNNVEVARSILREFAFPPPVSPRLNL
Experimental Endpoint: IC50

Solved cases (2 shown):
Compound	Subject Of Test	IC50
COCCO[C@H]1CCCN(Cc2cc(C(F)(F)F)c3cn(-c4cccc([C@H](c5nncn5C)C5CCC5)c4)c(=O)n3c2)C1 (single isomer, unassigned)	CBL-B (Homo sapiens, UniProt Q13191)	< 100 nM
COC[C@H]1C[C@@H]([C@@H](c2cccc(-n3cc4c(C(F)(F)F)cc(CN5CCC[C@H](C)C5)cn4c3=O)c2)c2nncn2C)C1 (single isomer, unassigned)	CBL-B (Homo sapiens, UniProt Q13191)	> 10000 nM

Query block: What value of IC50 has been reported for the following compound? Cn1cnnc1C1(c2cccc(-n3cc4c(C(F)(F)F)cc(CN5CCC6(CC6)C5)cn4c3=O)c2)CCC1
Result block: < 100 nM

Query block: What value of IC50 has been reported for the following compound? Cn1cnnc1[C@@H](c1cc(-c2nnnn2C)cc(-n2cc3c(C(F)(F)F)cccn3c2=O)c1)C1CCC1 (single isomer, unassigned)
Result block: > 10000 nM

Query block: What value of IC50 has been reported for the following compound? C[C@H]1CCCN(Cc2cc(C(F)(F)F)c3cn(-c4cccc([C@H](c5nc(CO)cn5C)C5CCC5)c4)c(=O)n3c2)C1 (single isomer, unassigned)
Result block: > 10000 nM

Query block: What value of IC50 has been reported for the following compound? CC(=O)N(C)Cc1cc([C@H](c2nncn2C)C2CCC2)cc(-n2cc3c(C(F)(F)F)cccn3c2=O)c1 (single isomer, unassigned)
Result block: > 10000 nM

Query block: What value of IC50 has been reported for the following compound? Cn1cnnc1[C@@H](c1cc(C#N)cc(-n2cc3c(C(F)(F)F)cc(CN4CCC(C)(F)CC4)cn3c2=O)c1)C1CCC1 (single isomer, unassigned)
Result block: < 100 nM

Query block: What value of IC50 has been reported for the following compound? Cn1cnnc1[C@@H](c1cc(F)cc(-n2cc3c(C(F)(F)F)cc(CN4CC5(CC5)C4)cn3c2=O)c1)C1CCC1 (single isomer, unassigned)
Result block: 1000 to 3000 nM

Query block: What value of IC50 has been reported for the following compound? C[C@H]1CN(Cc2cc(C(F)(F)F)c3cn(-c4cccc(C5(c6nncn6C)CC6(CC6)C5)c4)c(=O)n3c2)CCC1(F)F (single isomer, unassigned)
Result block: < 100 nM

Query block: What value of IC50 has been reported for the following compound? C[C@H]1CCCN(Cc2cc(C(F)(F)F)c3cn(-c4cccc(C5(c6nncs6)CC(C)(C)C5)c4)c(=O)n3c2)C1
Result block: 301 to 1000 nM

Query block: What value of IC50 has been reported for the following compound? COC(=O)N1CCC[C@H](c2cc(C(F)(F)F)c3cn(-c4cccc([C@H](c5nncn5C)C5CCC5)c4)c(=O)n3c2)C1 (single isomer, unassigned)
Result block: < 100 nM
